Note to self: these compounds have pIC50 reported for ROCK2 (Homo sapiens) in various publications.
pIC50: −log10 of the molar value.

GET /values?readout=pIC50&system=ROCK2 (Homo sapiens)&item= "COc1cc(F)cc(CN2CCN(c3ccc(-c4cn[nH]c4)c(C)c3)C2=O)c1"
> 8.70

Entry "COc1cccc([C@@H](C)N2CCN(c3ccc(-c4cn[nH]c4)cc3)C2=O)c1" , system ROCK2 (Homo sapiens): what pIC50 was measured?
> 8.70

Notebook entry, ROCK2 (Homo sapiens) assay: pIC50 of "COc1cc(CNC(=O)N2CCc3cc(-c4cn[nH]c4)ccc32)ccn1" = ?
≥ 7.30

Item: "COc1cc(N2CCC3(Cc4ccccc4C3)C2=O)ccc1-c1cn[nH]c1" Test system: ROCK2 (Homo sapiens) Read-out: pIC50 Value: ?
7.52 to 8.52

Request: pIC50, test system ROCK2 (Homo sapiens), entry "O=c1n(Cc2c(F)cccc2F)ccn1-c1ccc(-c2cn[nH]c2)cc1"
6.70 to 7.70

Continuing:
Give pIC50 (ROCK2 (Homo sapiens)) of the following compound: "COc1cc(F)cc(CNC(=O)N2CCc3cc(-c4cn[nH]c4)cnc32)c1"
5.30 to 6.30

Query pIC50 on ROCK2 (Homo sapiens) for [H][C@]1(c2n[nH]c(=O)c3ccccc32)C[C@]2(C[C@@H](NC(=O)c3cn4cccc(C)c4n3)C2)C1 (some centres unmarked)
7.00 to 7.82

I'm curious: which pIC50 was measured for "O=c1n(Cc2cc(F)ccc2F)cnn1-c1ccc(-c2cn[nH]c2)cc1" tested on ROCK2 (Homo sapiens)?
7.30 to 8.30

* * *

// note: IC50 values for ROCK2 (Homo sapiens) were reported in different studies

Requested field: IC50. Item: "CNc1nc(N2CCN(Cc3cccc(OC)c3)C2=O)ccc1-c1cn[nH]c1"
2.1 to 20 nM

Form field: reported IC50 of "Cc1c(F)cccc1Cn1ccn(-c2ccc(-c3cn[nH]c3)cc2)c1=O"
2.1 to 20 nM

Given the molecule COc1cccc(C(CO)n2ccn(-c3ccc(-c4cn[nH]c4)c(OC)c3)c2=O)c1 (single isomer, unassigned) , what is its reported IC50?
200 to 2000 nM

What does the record list as IC50 for "COc1cc(-c2cn[nH]c2)ccc1-n1cnn(Cc2ccccc2)c1=O" ?
250 to 2000 nM

Please give the measured IC50 for this molecule: COc1ccccc1-n1cc(C(=O)NC2CC3(C2)CC(c2n[nH]c(=O)c4ccccc24)C3)nn1 (stereo not drawn)
5.1 to 15 nM

* * *

Endpoint summary: pIC50, system: ROCK2 (Homo sapiens, UniProt O75116), multiple sources combined.
# pIC50: negative log10 of molar concentration; output just the value

For "COc1cc(N2CCC3(CCN(C(=O)c4ccc(CN5CCOCC5)cc4)CC3)C2=O)ccc1-c1cn[nH]c1" , what is its reported pIC50?
7.57

What does the record list as pIC50 for "O=C(Nc1ccc2c(c1)OCc1cnccc1-2)c1ccc2ccccc2c1" ?
5.33

Can you look up the measured pIC50 of CC(C)(O)COc1cccc(N2CC(=O)N([C@H]3C[C@@]4(C[C@H](Oc5ncccc5C(N)=O)C4)C3)C2=O)c1 (stereo partly drawn) for me?
7.26

Consider the additional molecule presented here.
Can you look up the measured pIC50 of "CN(C)c1cccc(CNC(=O)c2cccc([C@@H](CO)NC(=O)c3ccc(-c4ccncc4)cc3)c2)c1" for me?
9.00

* * *

Published pIC50 for UniProt:O75116, assembled from different documents, is shown next.
pIC50: −log10 of the molar value.

For orientation, consider the following solved cases.
Recall the recorded pIC50 for CC(C)(O)COc1ccc2c(C(=O)NC3CC4(C3)CC(Oc3nc5c(cc3C(N)=O)COCC5)C4)cnn2c1 (centres unmarked) with UniProt:O75116 and state it.
7.70

Request: pIC50, test system UniProt:O75116, entry "COc1cccc(CN2C(=O)N(c3ccc(-c4cn[nH]c4)cn3)CC23CCN(C(=O)CO)CC3)c1"
7.52 to 8.52

Provide the documented pIC50 with UniProt:O75116 as the system for CCc1nc(-n2ccn(C(C)c3cccc(OC)c3)c2=O)ccc1-c1cn[nH]c1 (single isomer, unassigned)
5.70 to 6.70

Please provide the recorded pIC50 for "O=C1N(Cc2ccccc2)CCN1c1ccc(-c2n[nH]c(=O)c3ccccc23)cc1" , tested on UniProt:O75116.
7.00 to 8.00

New cases:
I'm curious: which pIC50 was measured for "O=c1n(Cc2cccc(OCC3CC3)c2)ccn1-c1ccc(-c2cn[nH]c2)cn1" tested on UniProt:O75116?
6.70 to 7.70

* * *

Literature-derived IC50 for ROCK2 (Homo sapiens) follows.

Can you share its IC50? I mean this compound: "O=C1N(c2ccc(-c3n[nH]c(=O)c4ccccc34)cc2)CCN1c1ccccn1"
10 to 100 nM

Return reported IC50; argument: "O=C(Nc1cccc(-c2cc(Nc3ccc4[nH]ncc4c3)no2)c1)c1c[nH]cn1"
< 300 nM

Can you share its IC50? I mean this compound: "COc1cc(F)cc(CN2C(=O)N(c3ccc(-c4cn[nH]c4)c(C)n3)CC2(C)C)c1"
2.1 to 20 nM

What does the data say about its IC50? Entry: "Cn1cc(C(=O)Nc2cccc(-c3cc(Nc4ccc5[nH]ncc5c4)no3)c2)cn1"
< 300 nM

Entry "CCc1nc(N2CC3(CCN(CC(C)(C)O)CC3)N(Cc3cc(F)cc(OC)c3)C2=O)ccc1-c1cn[nH]c1" : reported IC50 = ?
< 3 nM

Need IC50 of [H][C@]1(c2n[nH]c(=O)c3ccccc32)C[C@@]2(C[C@H](NC(=O)c3cc4ccccc4[nH]3)C2)C1 (some centres unmarked) , thanks.
5.1 to 15 nM

Entry CS(=O)(=O)c1cccc(NC2CCN(c3ccc(-c4n[nH]c(=O)c5ccccc45)cc3)C2=O)c1 (centres unmarked) : reported IC50 = ?
10 to 100 nM

What does the data say about its IC50? Entry: "COc1cc(F)cc(CNC(=O)N2CCc3nc(-c4cn[nH]c4)ncc32)c1"
≤ 50 nM

* * *

Please find below IC50 data on ROCK2 (Homo sapiens, UniProt O75116) compiled from the literature.

Example compounds with recorded IC50:
Which value of IC50 has been reported for "O=C1CN(c2ccc(-c3cn[nH]c3)cc2)C(=O)N1Cc1cccc(F)c1" in the records?
20.1 to 200 nM

Consider the compound [H][C@]1(c2n[nH]c(=O)c3ccccc32)C[C@]2(C[C@@H](NC(=O)c3cnc4cc(-c5cccnc5)ccn34)C2)C1 (stereo partly shown) and give its measured IC50.
0.2 to 2 nM

Given the entry "O=C(N[C@H](CO)c1cc(F)cc(OCC2CC2)c1)N1CCc2cc(-c3cn[nH]c3)c(F)cc21" , report its measured IC50.
≤ 50 nM

---
Which IC50 reading was recorded for the compound "COc1cccc(CN2CCN(c3ccc(-c4cn[nH]c4)c(C4CC4)c3)C2=O)c1" ?
20.1 to 200 nM

* * *

Here is a set of compounds with reported IC50 for ROCK2 (Homo sapiens, UniProt O75116), compiled from the literature.

// IC50 lookup, key: "COc1cccc(CNC(=O)Nc2cc(-c3ccncc3)[nH]n2)c1F"
1870 nM

Quick one: IC50 of "COc1nc(-n2ccn(Cc3cccc(OC(F)F)c3)c2=O)ccc1-c1cn[nH]c1" ?
< 2 nM

Consider the compound shown here: Cc1nc(N2CCN(C(C)c3cccc(OCC4CC4)c3)C2=O)ccc1-c1cn[nH]c1 (single isomer, unassigned) What is its recorded IC50?
20.1 to 200 nM

Sample "COc1nc(N2CCN(Cc3cc(F)ccc3C)C2=O)ccc1-c1cn[nH]c1" — what was its IC50?
2.1 to 20 nM

What does the data say about its IC50? Entry: [H][C@]1(c2n[nH]c(=O)c3ccccc32)C[C@]2(C[C@@H](NC(=O)c3cn4cc(Br)ccc4n3)C2)C1 (stereo partly drawn)
15.1 to 100 nM

New cases:
Consider the compound "COc1cc(-n2nc(C)n(Cc3ccc(F)cc3)c2=O)ccc1-c1cn[nH]c1" and give its measured IC50.
5 to 50 nM

Return reported IC50; argument: "Cc1cn(-c2ccc3c(c2)OCCN3CC(=O)NC(C)C)nc1Nc1ccc2[nH]ncc2c1Cl"
300 to 3000 nM

For the compound CN(C)CCC(NC(=O)c1ccc2cnccc2c1)c1ccccc1 (stereo not drawn) , what IC50 is on record?
< 100 nM

Report IC50 for "Cc1nn(C)c(-c2ccc3sc(NC(=O)Cc4ccc(Oc5ncccc5C(N)=O)c(F)c4)nc3c2)c1C" please.
5 nM

Param item = "Cc1sc(NC(=O)Cc2ccc(Oc3ncccc3C(N)=O)c(F)c2)nc1-c1ccccn1" ; retrieve measured IC50.
47 nM

Field request: IC50 | item: Cc1nn(-c2ccc(-c3cn[nH]c3)cc2)c(=O)n1C(C)c1ccccc1 (stereo not drawn)
50 to 250 nM

Which value of IC50 has been reported for "CN(C(=O)c1cccc(CN2C(=O)N(c3ccc(-c4cn[nH]c4)cc3)CC23CCOCC3)c1)C1CC1" in the records?
< 3 nM
